Biological target: Ylr278c (UniProt Q05854)
Sequence (Q05854 whole entry): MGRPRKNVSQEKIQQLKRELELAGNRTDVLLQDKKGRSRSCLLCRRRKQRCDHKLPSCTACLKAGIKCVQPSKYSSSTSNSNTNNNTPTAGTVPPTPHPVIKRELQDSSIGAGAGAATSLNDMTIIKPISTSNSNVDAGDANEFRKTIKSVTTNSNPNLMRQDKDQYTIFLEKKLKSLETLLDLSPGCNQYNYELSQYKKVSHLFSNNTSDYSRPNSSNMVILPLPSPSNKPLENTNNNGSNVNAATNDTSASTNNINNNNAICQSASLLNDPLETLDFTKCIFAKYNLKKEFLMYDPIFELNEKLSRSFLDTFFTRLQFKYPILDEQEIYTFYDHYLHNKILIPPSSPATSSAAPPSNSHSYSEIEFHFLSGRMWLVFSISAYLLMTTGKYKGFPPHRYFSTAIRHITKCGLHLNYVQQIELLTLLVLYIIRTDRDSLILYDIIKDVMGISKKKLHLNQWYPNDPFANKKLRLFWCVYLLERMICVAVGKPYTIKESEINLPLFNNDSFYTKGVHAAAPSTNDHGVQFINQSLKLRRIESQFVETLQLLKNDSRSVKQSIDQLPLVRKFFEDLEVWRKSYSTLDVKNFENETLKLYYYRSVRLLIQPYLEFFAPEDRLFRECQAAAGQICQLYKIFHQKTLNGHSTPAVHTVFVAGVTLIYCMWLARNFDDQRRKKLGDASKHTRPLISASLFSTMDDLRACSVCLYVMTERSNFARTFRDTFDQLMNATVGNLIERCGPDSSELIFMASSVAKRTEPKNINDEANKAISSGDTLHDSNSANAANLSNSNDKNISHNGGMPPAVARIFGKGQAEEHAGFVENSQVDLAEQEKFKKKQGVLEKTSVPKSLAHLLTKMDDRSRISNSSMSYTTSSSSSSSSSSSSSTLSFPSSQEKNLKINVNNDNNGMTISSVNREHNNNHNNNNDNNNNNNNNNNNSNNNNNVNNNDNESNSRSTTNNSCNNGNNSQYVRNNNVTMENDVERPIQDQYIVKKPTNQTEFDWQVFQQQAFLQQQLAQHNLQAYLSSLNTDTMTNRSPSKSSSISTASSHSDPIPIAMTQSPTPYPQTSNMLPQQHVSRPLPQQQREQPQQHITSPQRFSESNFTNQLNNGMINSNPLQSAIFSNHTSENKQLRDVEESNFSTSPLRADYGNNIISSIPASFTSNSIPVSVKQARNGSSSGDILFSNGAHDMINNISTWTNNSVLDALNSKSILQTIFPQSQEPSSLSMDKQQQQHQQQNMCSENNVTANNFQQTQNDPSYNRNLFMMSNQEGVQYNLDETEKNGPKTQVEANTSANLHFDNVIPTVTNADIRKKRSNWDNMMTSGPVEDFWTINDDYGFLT
Assay: PBM E-score (8-mer binding enrichment) (E-score (-0.5 to 0.5)); higher = stronger / more preferred TF binding
Details: protein concentration: 200 nM; construct: GST-DNA-binding domain
The full ranking holds about 33,000 sequences; the median of “E-score (-0.5 to 0.5)” is about -0.054, and the highest 2% start at about 0.39. For the sample, the highest values were picked, then their nearest neighbours and some sequences at random.
Recorded PBM E-score for the following sequences

Some solved entries appear below for comparison.
BIOSEQUENCE: GAGAGTTA
MEASURED TARGET: Ylr278c (UniProt Q05854)
MEASUREMENT: -0.158
//
BIOSEQUENCE: AGCTCCGC
MEASURED TARGET: Ylr278c (UniProt Q05854)
MEASUREMENT: 0.436
//
BIOSEQUENCE: TCGGTCAA
MEASURED TARGET: Ylr278c (UniProt Q05854)
MEASUREMENT: 0.0369
//
BIOSEQUENCE: GGGAGGAC
MEASURED TARGET: Ylr278c (UniProt Q05854)
MEASUREMENT: 0.0177
//
BIOSEQUENCE: CTCCTCAC
MEASURED TARGET: Ylr278c (UniProt Q05854)
MEASUREMENT: -0.185
//
BIOSEQUENCE: CGGAGGCC
MEASURED TARGET: Ylr278c (UniProt Q05854)
MEASUREMENT: 0.42

### Prompt Annotate the sequence GTCCGAAA with its measured PBM E-score.
### Response 0.426

### Prompt Annotate the sequence CGGAGGAG with its measured PBM E-score.
### Response 0.417

### Prompt Annotate the sequence AGCTCCAC with its measured PBM E-score.
### Response -0.0221

### Prompt Annotate the sequence CGGAGGAC with its measured PBM E-score.
### Response 0.423
